Readings of EC50 CreLuc hGIPR 100% hP for the listed binders
- test_target: T1, human GIP receptor (human, UniProt P48546 22-466)
- T1 sequence (looked up): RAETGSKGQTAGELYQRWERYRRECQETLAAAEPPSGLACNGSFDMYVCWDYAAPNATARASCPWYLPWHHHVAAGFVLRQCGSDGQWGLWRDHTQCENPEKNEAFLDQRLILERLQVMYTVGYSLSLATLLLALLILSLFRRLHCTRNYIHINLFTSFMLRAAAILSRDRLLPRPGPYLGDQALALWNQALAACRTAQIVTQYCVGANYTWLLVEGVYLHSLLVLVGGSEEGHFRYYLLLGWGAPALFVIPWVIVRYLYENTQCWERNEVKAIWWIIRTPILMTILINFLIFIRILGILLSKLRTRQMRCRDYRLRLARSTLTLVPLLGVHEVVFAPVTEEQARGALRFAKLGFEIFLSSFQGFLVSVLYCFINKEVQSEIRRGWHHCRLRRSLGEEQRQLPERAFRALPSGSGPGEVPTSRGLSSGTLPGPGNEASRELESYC
- protocol_text: cell-based or functional assay
Starred links: 1 amine or outer side, 2 acyl side, 3 side chain; linkers in the order of their positions; H or OH if unused. Non-standard residues stand in square brackets, D forms with d. Groups on a side chain read outwards from the residue. No end group written: not given here. *: point of attachment. C20 diacid = O=C(O)CCCCCCCCCCCCCCCCCCC(=O)*; γGlu = O=C(O)[C@H](CCC(=O)[*:2])N[*:1]; AEEA = NCCOCCOCC(=O)O; Aib = CC(C)(N)C(=O)O
# unit: nM | format: bare number

## Task What value of measured EC50 CreLuc hGIPR 100% hP is listed for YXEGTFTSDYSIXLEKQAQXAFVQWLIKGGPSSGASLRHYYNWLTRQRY (Aib at 2, 13, 20; K28 side chain: C18DA-gGlu-gGlu-gGlu-gGlu-gGlu-gGlu-eLys; C-terminal NH2) [Compound 170] ?
## Result 1.15

## Task Now try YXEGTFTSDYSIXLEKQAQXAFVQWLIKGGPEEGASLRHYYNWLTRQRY (Aib at 2, 13, 20; K28 side chain: C18DA-gGlu-gGlu-gGlu-gGlu-gGlu-gGlu-eLys; C-terminal NH2) [Compound 149] .
## Result 0.79

## Task One more binder: Y[Aib]EGTFTSDYSI[Aib]LEKQAQ[Aib]AFVQWLIK([AEEA-AEEA-γGlu-γGlu-Glu-γGlu-C20 diacid])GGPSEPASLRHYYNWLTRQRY-NH2 [Compound 165]
## Result 1.88

Just for reference, patent US20240247080A1 is where these values come from.
